Where do the numbers come from? From ChEMBL document CHEMBL2203203.

Test: Half life in rat at 3 mg/kg, po
Type: ADME, organism-based
Design: dose 3 mg/kg, route oral
Conditions: in vivo
Assay metric: half-life (h)

O=C(Nc1sc2c(c1C(=O)N1CC(F)(F)C1)CCOC2)c1c(F)cccc1C(F)(F)F ... 8.9

----------
Organism: Homo sapiens
Test: Selectivity ratio of EC50 for human CB1 receptor to EC50 for human CB2 receptor
Assay metric: Ratio EC50

CC1(C)CCc2sc(NC(=O)c3ccccc3Cl)c(C(=O)NCC3CC3)c21 ... 30
COC1CN(C(=O)c2c(NC(=O)c3ccccc3OC(F)(F)F)sc3c2CCOC3)C1 ... 37

----------
Assay: Oral bioavailability in rat at 3 mg/kg
Format: ADME, organism-based
Conditions: in vivo
Assay metric: bioavailability (%)

O=C(Nc1sc2c(c1C(=O)N1CC(F)(F)C1)CCOC2)c1c(F)cccc1C(F)(F)F ... 8

----------
Molecular target: Cannabinoid receptor 1 (Homo sapiens, UniProt P21554)
Sequence (P21554 whole entry): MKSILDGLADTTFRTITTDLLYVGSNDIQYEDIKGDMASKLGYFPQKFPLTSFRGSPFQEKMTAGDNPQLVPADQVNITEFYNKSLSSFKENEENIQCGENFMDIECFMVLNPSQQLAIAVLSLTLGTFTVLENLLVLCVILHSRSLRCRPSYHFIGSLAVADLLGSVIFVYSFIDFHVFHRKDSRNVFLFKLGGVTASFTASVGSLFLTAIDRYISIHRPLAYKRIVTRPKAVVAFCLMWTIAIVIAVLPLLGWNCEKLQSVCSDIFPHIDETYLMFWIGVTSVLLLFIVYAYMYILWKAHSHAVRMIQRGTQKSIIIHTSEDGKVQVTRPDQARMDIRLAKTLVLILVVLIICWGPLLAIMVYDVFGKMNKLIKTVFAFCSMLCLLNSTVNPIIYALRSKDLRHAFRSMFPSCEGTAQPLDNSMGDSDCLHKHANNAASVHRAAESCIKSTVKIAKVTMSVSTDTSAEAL
Assay: Agonist activity at human CB1 receptor after 4 hrs by luciferase reporter gene assay relative to control
Format: functional
Label Condition met when Efficacy is at or above 90%; otherwise label Condition not met.

O=C(Nc1sc2c(c1C(=O)N1CCCCC1)CCOC2)c1ccccc1C(F)(F)F ... Condition met
Cc1ccccc1C(=O)Nc1sc2c(c1C(=O)N1CCOCC1)CCOC2 ... Condition met
COC1CN(C(=O)c2c(NC(=O)c3ccccc3OC(F)(F)F)sc3c2CCOC3)C1 ... Condition not met
O=C(Nc1sc2c(c1C(=O)N1CCCCC1)CCOC2)c1ccccc1OC(F)(F)F ... Condition not met
O=C(CN1CCCCC1)Nc1sc2c(c1C(=O)N1CCC(F)(F)CC1)CCCC2 ... Condition met
CC(C)(C)CC(=O)Nc1sc2c(c1C(=O)N1CCC(F)(F)CC1)CCCC2 ... Condition not met
COCCNC(=O)c1c(NC(=O)c2ccccc2C(F)(F)F)sc2c1CCOC2 ... Condition not met
COCCNC(=O)c1c(NC(=O)c2c(F)cccc2C(F)(F)F)sc2c1CCOC2 ... Condition not met
COC1CN(C(=O)c2c(NC(=O)c3c(F)cccc3C(F)(F)F)sc3c2CCOC3)C1 ... Condition not met

----------
Recorded half-life values for a group of molecules are listed next.
Assay: Half life in rat liver microsomes
Format: ADME, Microsome
Assay metric: half-life (min)

O=C(Nc1sc2c(c1C(=O)N1CC(F)(F)C1)CCOC2)c1ccccc1C(F)(F)F ... 8
COC1CN(C(=O)c2c(NC(=O)c3ccccc3C(F)(F)F)sc3c2CCOC3)C1 ... 50.4
COCCNC(=O)c1c(NC(=O)c2ccccc2C(F)(F)F)sc2c1CCOC2 ... 17.8
O=C(Nc1sc2c(c1C(=O)N1CCCCC1)CCOC2)c1ccccc1OC(F)(F)F ... 3.52
O=C(Nc1sc2c(c1C(=O)N1CC(F)(F)C1)CCOC2)c1c(F)cccc1C(F)(F)F ... 14.2
O=C(Nc1sc2c(c1C(=O)N1CCCCC1)CCOC2)c1ccccc1C(F)(F)F ... 5.28
O=C(Nc1sc2c(c1C(=O)N1CC(F)(F)C1)CCOC2)c1ccccc1OC(F)(F)F ... 6.4
COCCNC(=O)c1c(NC(=O)c2c(F)cccc2C(F)(F)F)sc2c1CCOC2 ... 13.6
